The reported numbers originate from PubChem BioAssay AID1963875.

# System: KRAS-mutant PDC complex spheroid viability
# experiment-description: Anticancer human tumor 186277-243-T-J2-PDC patient-derived colon adenocarcinoma cell line growth inhibition [KRAS2]; active = viability on the fitted dose curve at most 10% of control; inactive = the rest
# condition-context: second compound 0.316 µM; first compound 0.316 µM
Allowed answers: active, inactive

For orientation, consider the following solved cases.
molecule	label-value
COc1cc2nccc(Oc3ccc(NC(=O)C4(C(=O)Nc5ccc(F)cc5)CC4)cc3)c2cc1OC + CNCc1ccccc1-c1csc(C(C)Nc2nc(C)nc3cc(OC)c(OC)cc23)c1	inactive
CC1COCCN1c1cc(-c2ccnn2C)c2ccnc(-c3ccn[nH]3)c2n1 (stereo unspecified) + CC1OCC2(CCN(c3cnc(Sc4ccnc(N)c4Cl)c(N)n3)CC2)C1N	active
CCNC(=O)CC1N=C(c2ccc(Cl)cc2)c2cc(OC)ccc2-n2c(C)nnc21 (stereo unspecified) + C=CC(=O)N1CCN(c2nc(=O)n(-c3c(C)ccnc3C(C)C)c3nc(-c4c(O)cccc4F)c(F)cc23)C(C)C1	inactive
Cn1nccc1Nc1nccc(-c2cc3c(s2)C(C)(C)N(CCN2CCOCC2)C3=O)n1 + C=CC(=O)N1CCN(c2nc(=O)n(-c3c(C)ccnc3C(C)C)c3nc(-c4c(O)cccc4F)c(F)cc23)C(C)C1	inactive

Given Cn1nccc1Nc1nccc(-c2cc3c(s2)C(C)(C)N(CCN2CCOCC2)C3=O)n1 + CNCc1ccccc1-c1csc(C(C)Nc2nc(C)nc3cc(OC)c(OC)cc23)c1 , state the outcome it received in this test.
inactive

Any idea what this test logged for CCNC(=O)CC1N=C(c2ccc(Cl)cc2)c2cc(OC)ccc2-n2c(C)nnc21 (stereo unspecified) + C=CC(=O)N1CCN(c2nc(OCC3CCCN3C)nc3c2CCN(c2cccc4cccc(C)c24)C3)CC1CC#N ?
inactive

GET /call?item= CC(C)NCC(C(=O)N1CCN(c2ncnc3c2C(C)CC3O)CC1)c1ccc(Cl)cc1 (stereo unspecified) + CC1OCC2(CCN(c3cnc(Sc4ccnc(N)c4Cl)c(N)n3)CC2)C1N returns the recorded outcome of this test.
inactive

Answer briefly: the call reported for CC1COCCN1c1cc(-c2ccnn2C)c2ccnc(-c3ccn[nH]3)c2n1 (stereo unspecified) + COc1cc2nc(C)nc(NC(C)c3cc(N)cc(C(F)(F)F)c3)c2cc1OC1CCOC1 in this assay.
active

Assay outcome for CCNC(=O)CC1N=C(c2ccc(Cl)cc2)c2cc(OC)ccc2-n2c(C)nnc21 (stereo unspecified) + COc1cc2nc(C)nc(NC(C)c3cc(N)cc(C(F)(F)F)c3)c2cc1OC1CCOC1 : what was it?
inactive

How did this test come out for Cn1nccc1Nc1nccc(-c2cc3c(s2)C(C)(C)N(CCN2CCOCC2)C3=O)n1 + C=CC(=O)N1CCN(c2nc(OCC3CCCN3C)nc3c2CCN(c2cccc4cccc(C)c24)C3)CC1CC#N ?
inactive

Please let me know the test result on file for CCNC(=O)CC1N=C(c2ccc(Cl)cc2)c2cc(OC)ccc2-n2c(C)nnc21 (stereo unspecified) + CNCc1ccccc1-c1csc(C(C)Nc2nc(C)nc3cc(OC)c(OC)cc23)c1 .
inactive

====

# System: KRAS-mutant PDC complex spheroid viability
# experiment-description: Anticancer human tumor 186277-243-T-J2-PDC cell line growth inhibition [KRAS2];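 note: viability read after seven days of compound exposure; 100% = DMSO vehicle-treated spheroids so lower means less viable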
# condition-context: second compound 3.16 µM; first compound 0.01 µM; hits give low values
Each record here notes measured viability, T/C.

Some solved cases for reference:
compound	viability, T/C
CN(C)C/C=C/C(=O)Nc1cc2c(Nc3ccc(F)c(Cl)c3)ncnc2cc1O[C@H]1CCOC1 + CC1OCC2(CCN(c3cnc(Sc4ccnc(N)c4Cl)c(N)n3)CC2)C1N	62.6%
CN(C)C/C=C/C(=O)Nc1cc2c(Nc3ccc(F)c(Cl)c3)ncnc2cc1O[C@H]1CCOC1 + CNCc1ccccc1-c1csc(C(C)Nc2nc(C)nc3cc(OC)c(OC)cc23)c1	29%
CC(C)n1nc(-c2ccc3oc(N)nc3c2)c2c(N)ncnc21 + CC1OCC2(CCN(c3cnc(Sc4ccnc(N)c4Cl)c(N)n3)CC2)C1N	39.5%
CC(=O)Nc1cccc(-n2c(=O)n(C3CC3)c(=O)c3c(Nc4ccc(I)cc4F)n(C)c(=O)c(C)c32)c1 + C=CC(=O)N1CCN(c2nc(=O)n(-c3c(C)ccnc3C(C)C)c3nc(-c4c(O)cccc4F)c(F)cc23)C(C)C1	2.47%

Proceed to the following item.
Return reported viability, T/C; argument: Cn1ncnc1[C@H]1c2n[nH]c(=O)c3cc(F)cc(c23)N[C@@H]1c1ccc(F)cc1 + CC1OCC2(CCN(c3cnc(Sc4ccnc(N)c4Cl)c(N)n3)CC2)C1N
60.2%
